Measured normalized RNA/DNA level without ligand (log10) of individual entries
B1: library; a variant is named by its letters at N, in order (parent)
chain: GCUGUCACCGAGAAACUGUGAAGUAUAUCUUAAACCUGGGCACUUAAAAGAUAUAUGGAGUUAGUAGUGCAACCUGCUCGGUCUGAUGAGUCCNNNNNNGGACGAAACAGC

# Variants of: B1
# Assay Details: normalized RNA/DNA level without ligand (relative to sTRSVctl = 100) (log10 (% of sTRSVctl)); HEK293T; ligand: cyclic di-GMP (c-di-GMP-II aptamer); higher = less ribozyme self-cleavage, higher mRNA level
# Condition Notes: reporter: mCherry (pCS4076), ligand present: no
# respond with the number and nothing more

Example entries begin here.
UACGAC
1.67
UAAACC
1.77
GAACUA
1.6

Lab note: next variant to report on.
-- ask What measured normalized RNA/DNA level without ligand (log10) goes with "CGUGUC" ?
-- reply 1.67
